Target Of Assay: Amine oxidase [flavin-containing] A (Homo sapiens, UniProt P21397)
Sequence (P21397 whole entry): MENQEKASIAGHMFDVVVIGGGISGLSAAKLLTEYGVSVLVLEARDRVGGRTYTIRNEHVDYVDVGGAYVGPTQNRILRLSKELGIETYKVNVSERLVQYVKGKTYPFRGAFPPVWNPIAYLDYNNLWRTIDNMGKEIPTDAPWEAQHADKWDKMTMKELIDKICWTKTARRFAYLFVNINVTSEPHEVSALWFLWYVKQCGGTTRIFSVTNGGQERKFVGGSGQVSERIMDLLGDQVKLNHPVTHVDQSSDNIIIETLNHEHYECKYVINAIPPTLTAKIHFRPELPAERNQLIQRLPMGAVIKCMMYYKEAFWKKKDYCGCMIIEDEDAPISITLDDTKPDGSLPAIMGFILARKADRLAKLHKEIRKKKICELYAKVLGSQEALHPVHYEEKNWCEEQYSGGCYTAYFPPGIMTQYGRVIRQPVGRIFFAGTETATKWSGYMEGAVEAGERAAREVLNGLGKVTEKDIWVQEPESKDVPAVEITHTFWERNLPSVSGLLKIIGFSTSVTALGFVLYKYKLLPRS
Test: Inhibition of recombinant human MAOA using p-tyramine as substrate after 15 mins by Amplex Red dye-based fluorometric method
Each entry below carries its recorded Ki.

Ask | Give its Ki value. Item: O=C(/C=C/c1ccc([N+](=O)[O-])cc1)c1ccc(Cl)s1
Reply | 490 nM

Ask | GET /values?readout=Ki&item= CCc1ccc(/C=C/C(=O)c2ccc(Cl)s2)cc1
Reply | 5220 nM

----------
Target Of Assay: Amine oxidase [flavin-containing] B (Homo sapiens)
Sequence (P27338 whole entry): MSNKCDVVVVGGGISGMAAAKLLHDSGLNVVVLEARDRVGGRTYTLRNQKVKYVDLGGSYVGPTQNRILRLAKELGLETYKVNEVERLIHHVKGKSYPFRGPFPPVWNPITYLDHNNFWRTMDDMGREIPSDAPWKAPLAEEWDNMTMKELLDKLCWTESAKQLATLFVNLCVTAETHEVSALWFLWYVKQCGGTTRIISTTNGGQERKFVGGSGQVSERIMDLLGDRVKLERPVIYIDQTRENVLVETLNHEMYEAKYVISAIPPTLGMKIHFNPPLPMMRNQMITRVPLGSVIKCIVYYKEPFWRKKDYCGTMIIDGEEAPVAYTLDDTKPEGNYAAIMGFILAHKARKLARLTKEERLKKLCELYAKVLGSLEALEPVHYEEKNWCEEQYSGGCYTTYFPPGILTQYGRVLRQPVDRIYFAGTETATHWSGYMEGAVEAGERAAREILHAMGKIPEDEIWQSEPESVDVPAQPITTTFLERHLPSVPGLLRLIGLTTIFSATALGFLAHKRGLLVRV
Test: Inhibition of human MAOB
Quick reference: Ki of the listed items.
Quick note: give the figure in µM, leave out the unit.

molecule=Cn1c(=O)c2[nH]c(-c3cccc(NC(=O)/C=C/c4cccc(F)c4)c3)nc2n(C)c1=O recorded_metric=Ki reading=3.42
molecule="CCn1c(=O)c2c(nc(/C=C/c3ccc(OC)c(OC)c3)n2C)n(CC)c1=O [ISTRADEFYLLINE]" recorded_metric=Ki reading=0.027

Ask | Entry under review: Cn1c(=O)c2c(nc(-c3cccc(Cl)c3)n2C)n(C)c1=O . Reported Ki?
Reply | 36
